AUC(0-t) at 24 h values for the compounds below.
- Assay Text: AUC (0 to 24 hrs) in mouse at 3 mg/kg, po measured for 24 hrs
- Assay type: ADME, organism-based
- Parameters: route oral, time 24 hrs, dose 3 mg/kg
- Cond: in vivo

Use these answered entries as a reference point.
[
  {
    "Chem Smiles": "[2H]C([2H])([2H])c1nnn(C)c1-c1cnc2c3cc(F)c(C(C)(C)O)cc3n([C@H](c3ccccc3)C3CCOCC3)c2c1",
    "AUC(0-t) at 24 h": "12.6 µM·h"
  },
  {
    "Chem Smiles": "[2H]C([2H])([2H])c1nnn(C)c1-c1cnc2c3ccc(C(C)(C)O)c(F)c3n([C@H](c3cc(C)on3)C3CCOCC3)c2c1",
    "AUC(0-t) at 24 h": "8.7 µM·h"
  }
]

response.value for [2H]C([2H])([2H])c1nnn(C)c1-c1cnc2c3ccc(C(C)(C)O)c(F)c3n([C@H](c3ncccc3F)C3CCOCC3)c2c1 (field: AUC(0-t) at 24 h) = 10.9 µM·h

* * *

- Target Entity: Bromodomain-containing protein 4 (Homo sapiens, UniProt O60885)
- Assay Text: Inhibition of BRD4 (unknown origin) assessed as reduction in c-Myc expression
Readout Kind: pIC50
Formally, pIC50 is defined as -log10 of the concentration c, with c in mol/L.

[
  {
    "Compound": "[2H]C([2H])([2H])c1nnn(C)c1-c1cnc2c3ccc(C(C)(C)O)cc3n([C@H](c3cc(C)on3)C3CCOCC3)c2c1",
    "Target Entity": "Bromodomain-containing protein 4 (Homo sapiens, UniProt O60885)",
    "pIC50": 8.68
  },
  {
    "Compound": "[2H]C([2H])([2H])c1nnn(C)c1-c1cnc2c3cc(F)c(C(C)(C)O)cc3n([C@H](c3cc(C)on3)C3CCOCC3)c2c1",
    "Target Entity": "Bromodomain-containing protein 4 (Homo sapiens, UniProt O60885)",
    "pIC50": 8.66
  },
  {
    "Compound": "Cc1cc([C@H](C2CCOCC2)n2c3cc(C(C)(C)O)ccc3c3ncc(-c4c(C)nnn4C)cc32)no1",
    "Target Entity": "Bromodomain-containing protein 4 (Homo sapiens, UniProt O60885)",
    "pIC50": 8.55
  }
]

// moving on: another record for pIC50
Bench note, Bromodomain-containing protein 4 (Homo sapiens, UniProt O60885): entry Cc1nnn(C)c1-c1cnc2c3ccc(C(C)(C)O)cc3n(C(c3cnn[nH]3)C3CCOCC3)c2c1 (centres undefined) , its pIC50 = 6.68

* * *

- Assay Text: Metabolic stability in rat liver microsomes assessed as half life measured upto 120 mins
- Type: ADME, Microsome
Readout Kind: half-life

[
  {
    "Chem Smiles": "[2H]C([2H])([2H])c1nnn(C)c1-c1cnc2c3ccc(C(C)(C)O)cc3n([C@H](c3ncccc3F)C3CCOCC3)c2c1",
    "half-life": "48 min"
  },
  {
    "Chem Smiles": "[2H]C([2H])([2H])c1nnn(C)c1-c1cnc2c3ccc(C(C)(C)O)c(F)c3n([C@H](c3ncccc3F)C3CCOCC3)c2c1",
    "half-life": "47 min"
  },
  {
    "Chem Smiles": "[2H]C([2H])([2H])c1nnn(C)c1-c1cnc2c3ccc(C(C)(C)O)cc3n([C@H](c3cc(C)on3)C3CCOCC3)c2c1",
    "half-life": "33 min"
  }
]

response.value for [2H]C([2H])([2H])c1nnn(C)c1-c1cnc2c3cc(F)c(C(C)(C)O)cc3n([C@H](c3cc(C)on3)C3CCOCC3)c2c1 (field: half-life) = 3 min
